# target or system: UniProtKB P03372
# Sequence (P03372 whole entry): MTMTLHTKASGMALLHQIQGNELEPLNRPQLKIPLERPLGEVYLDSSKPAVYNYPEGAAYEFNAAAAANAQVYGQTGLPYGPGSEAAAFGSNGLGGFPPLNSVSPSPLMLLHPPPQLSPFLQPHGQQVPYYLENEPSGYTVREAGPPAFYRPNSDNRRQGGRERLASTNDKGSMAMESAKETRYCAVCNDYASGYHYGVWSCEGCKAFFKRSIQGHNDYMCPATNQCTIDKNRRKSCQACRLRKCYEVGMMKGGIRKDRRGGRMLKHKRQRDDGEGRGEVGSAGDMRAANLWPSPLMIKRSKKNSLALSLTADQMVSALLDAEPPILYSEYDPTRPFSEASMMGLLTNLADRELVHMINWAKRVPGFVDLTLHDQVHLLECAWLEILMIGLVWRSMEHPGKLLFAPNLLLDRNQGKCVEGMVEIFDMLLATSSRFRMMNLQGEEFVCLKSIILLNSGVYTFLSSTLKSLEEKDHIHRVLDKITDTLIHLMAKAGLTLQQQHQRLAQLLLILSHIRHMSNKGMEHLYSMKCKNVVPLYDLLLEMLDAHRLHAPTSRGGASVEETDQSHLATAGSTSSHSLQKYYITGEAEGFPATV
Kindly supply the reported Binding affinity values for the records listed here.
One number for each entry.

Examples from the recorded data:
Cc1c(C(C)(C)C)nc2c(-c3cccc(O)c3)c(-c3ccc(O)cc3)nn2c1C(C)(C)C 0.02
Oc1ccc(-c2nn3c(C(F)(F)F)cc(C(F)(F)F)nc3c2-c2cccc(O)c2)cc1 0.04

Please look at the following compound next.
Problem: Which Binding affinity reading was recorded for the compound "Cc1nc2c(-c3ccc(O)cc3)c(-c3ccc(O)cc3)nn2c(C)c1C" ?
Solution: 0.01

----------
Record set of Binding affinity for target or system Estrogen receptor beta (Homo sapiens) (UniProt Q92731). Further: unit not given here.

FC(F)(F)c1cc(C(F)(F)F)n2nc(-c3ccccc3)c(-c3ccccc3)c2n1 < 0.01
CCc1cc(CC)n2nc(-c3ccc(O)cc3)c(-c3cccc(O)c3)c2n1 < 0.01
Oc1ccc(-c2nn3c(C(F)(F)F)cc(C(F)(F)F)nc3c2-c2cccc(O)c2)cc1 0.08
Oc1ccc(-c2nn3cccnc3c2-c2ccccc2)cc1 0.02

Problem: Which Binding affinity reading was recorded for the compound "Cc1nc2c(-c3ccccc3)c(-c3ccc(O)cc3)nn2c(C)c1C" ?
Solution: 0.02
